Data origin, for the record: PubChem BioAssay (NCATS)

system: CRL-7250; assay: Cytotoxic Profiling of Annotated Libraries Using Quantitative High-Throughput Screening (AID 1296008); conditions: Five cell lines viability, CellTiter-Glo ATP luminescence, 48-72 h; active compounds read low; note: % is set by controls: 0 for no effect and ±100 for the full control effect; nearly all actives have a fitted effect of over 60% in size
Results filed as inconclusive are left out.
Reported max response values for the following compounds.
metric: max response (%)

{"compound": "Cc1ccccc1C(=O)N1CC/C(=N\\OS(=O)(=O)O)c2ccc(Cl)cc21", "metric": "max response", "outputUnit": "%", "result": 3.76}
{"compound": "CC(=O)Nc1c(I)c(NC(C)=O)c(I)c(C(=O)O)c1I", "metric": "max response", "outputUnit": "%", "result": 2.5}
{"compound": "CN(CC1(C)CCCO1)S(=O)(=O)c1ccc(Cl)c(S(N)(=O)=O)c1 (stereo not given)", "metric": "max response", "outputUnit": "%", "result": 1.85}
{"compound": "CCCCN(CCN(CCCC)C(=O)N1CCOCC1)C(=O)N1CCOCC1", "metric": "max response", "outputUnit": "%", "result": -1.09}
{"compound": "CCCCC(=O)OCC(=O)[C@H]1[C@H](C)C[C@H]2[C@@H]3C[C@H](F)C4=CC(=O)C=C[C@]4(C)[C@@]3(F)[C@@H](O)C[C@@]21C", "metric": "max response", "outputUnit": "%", "result": -1.6}
